T/C values for the compounds below.
# Test system: P388 leukemia ip, CD2F1 mice, survival T/C
# test: NCI In Vivo Anticancer Drug Screen. Data for tumor model P388 Leukemia (intraperitoneal) in CD2F1 (CDF1) mice
# recorded conditions: endpoint: median survival time; dose: 12.5 mg/kg/injection; schedule: Q01DX009 (ip); vehicle: saline; higher = longer survival
Inconclusive results and toxic doses are left out.

Below: 2 compounds and their reported T/C.
> print(dat)
                compound                              assay.target       assay.value
1  COC(=O)NC(=O)CCC(=O)O  P388 leukemia ip, CD2F1 mice, survival T/C  104 % of control
2  CN1C(=O)Cc2ccccc2C1=O  P388 leukemia ip, CD2F1 mice, survival T/C  103 % of control

May I ask what T/C has been recorded for `O=C(O)CP(=O)(O)O` ?
101 % of control

May I ask what T/C has been recorded for [I][Hg][CH2]C1Cc2ccccc2O1 (stereo unspecified) ?
90 % of control

May I ask what T/C has been recorded for `Cc1cc(N=Nc2ccc(N=Nc3ccc(S(=O)(=O)O)cc3)cc2)cc(C(=O)O)c1O` ?
114 % of control

May I ask what T/C has been recorded for `Cc1cc(OC(=O)Nc2ccc(C(C)C)cc2)c(C)cc1Br` ?
92 % of control

###

# Test system: P388 leukemia ip, CD2F1 mice, survival T/C
# test: NCI In Vivo Anticancer Drug Screen. Data for tumor model P388 Leukemia (intraperitoneal) in CD2F1 (CDF1) mice
# recorded conditions: endpoint: median survival time; dose: 200.0 mg/kg/injection; schedule: Q01DX009 (ip); vehicle: saline with Tween-80; higher = longer survival
Inconclusive results and toxic doses are left out.
T/C values for the molecules below.

> print(dat)
                                   molecule       assay.value
1  COc1ccc2c(c1)CC(=CO)CC2=O.COc1ccc2c(c1)CC/C(=C/O)C2=O.[Cu]  123 % of control
2  CC(=O)n1cc(C2CC(=O)OC3=C2CC(=O)C(C)(C)C3)c2ccccc21 (configuration not stated)  113 % of control
3                              N=C(N)S(=O)O  101 % of control

May I ask what T/C has been recorded for `CCOC(=O)CCCC(=O)Cl` ?
96 % of control

May I ask what T/C has been recorded for `CC1(C)CC(COC(=O)c2c3ccccc3c3ccc4cccc5ccc2c3c54)CC(C)(C)N1O` ?
91 % of control

May I ask what T/C has been recorded for `C/C=C/Cc1nnc(C)c2c(C)[nH]nc12` ?
102 % of control

May I ask what T/C has been recorded for `C=CC(=NC(C)(C)C)Nc1ccc(Cl)cc1` ?
97 % of control

###

# Tested on: P388 leukemia ip, CD2F1 mice, survival T/C
# test: NCI In Vivo Anticancer Drug Screen. Data for tumor model P388 Leukemia (intraperitoneal) in CD2F1 (CDF1) mice
# recorded conditions: endpoint: median survival time; dose: 120.0 mg/kg/injection; schedule: Q01DX005 (ip); vehicle: saline with Tween-80; higher = longer survival
Inconclusive results and toxic doses are left out.
measurement label: T/C

May I ask what T/C has been recorded for COc1cc(OC)cc(C2SCC(=O)N2c2nncs2)c1 (stereo not drawn) ?
98 % of control

May I ask what T/C has been recorded for CC(Cl)(c1ccccc1)C1OCCO1 (stereo not drawn) ?
101 % of control

May I ask what T/C has been recorded for `c1ccc2cc3n[se]nc3cc2c1` ?
90 % of control

May I ask what T/C has been recorded for `C/C(CC(C)C)=N\NC(=O)CNC(=O)c1ccccc1` ?
106 % of control

May I ask what T/C has been recorded for COCOc1c(OC)c(C2(O)C(=O)N(C)c3ccccc32)c(OCOC)c(OC)c1C1(O)C(=O)N(C)c2ccccc21 (stereo not drawn) ?
89 % of control

May I ask what T/C has been recorded for Cc1ccc(S(=O)(=O)C(CCS(C)(=O)=O)C(=O)c2ccccc2)cc1 (stereo not drawn) ?
92 % of control

May I ask what T/C has been recorded for `Cc1[nH]n(-c2ccc(S(=O)(=O)O)cc2)c(=O)c1N=Nc1ccccc1` ?
100 % of control

May I ask what T/C has been recorded for `O=C([CH-]C(=O)C(F)(F)F)c1ccco1.O=C([CH-]C(=O)C(F)(F)F)c1ccco1.O=C([CH-]C(=O)C(F)(F)F)c1ccco1.[Ru+3]` ?
97 % of control

May I ask what T/C has been recorded for `Cc1cnc(NS(=O)(=O)c2ccc(N)cc2)nc1-c1ccccc1O` ?
93 % of control

###

T/C values for the compounds below.
# Test system: P388 leukemia ip, CD2F1 mice, survival T/C
# test: NCI In Vivo Anticancer Drug Screen. Data for tumor model P388 Leukemia (intraperitoneal) in CD2F1 (CDF1) mice
# recorded conditions: endpoint: median survival time; dose: 100.0 mg/kg/injection; schedule: Q01DX005 (ip); vehicle: Klucel (hydroxypropylcellulose) (HPC); higher = longer survival
# Procedure: The antitumor activity of compounds was measured in mice bearing transplantable tumors. Survival or tumor size were measured and the results are expressed as the measurement made in the treated group (T) divided by the measurement made in the vehicle treated control group (C). The tumor model used in this assay is P388 Leukemia (intraperitoneal) in CD2F1 (CDF1) mice
Toxic doses and inconclusive results are not listed.

Below: 10 compounds and their reported T/C.
> print(dat)
                                    compound                              assay.target       assay.value
 1      CC(=O)c1ccc(Cl)c(N=Cc2cc(Br)ccc2O)c1  P388 leukemia ip, CD2F1 mice, survival T/C   95 % of control
 2           CCc1nc2c(cnn2C)c(=O)n1-c1ccccc1  P388 leukemia ip, CD2F1 mice, survival T/C  100 % of control
 3                      Nc1nsc2nc3ccccc3cc12  P388 leukemia ip, CD2F1 mice, survival T/C  112 % of control
 4  CCOC(=C\C(=O)NC)/C=C/c1ccc([N+](=O)[O-])cc1  P388 leukemia ip, CD2F1 mice, survival T/C   88 % of control
 5  CCCCCN(CCCCC)CC(O)c1ccc(OC)c2ccccc12 (configuration not stated)  P388 leukemia ip, CD2F1 mice, survival T/C   88 % of control
 6  O=C(O)CCCNS(=O)(=O)c1ccc(S(=O)(=O)NCCCC(=O)O)cc1  P388 leukemia ip, CD2F1 mice, survival T/C  103 % of control
 7  CC(=O)C1=C(O)C(CC(C)C)NC1=O (configuration not stated)  P388 leukemia ip, CD2F1 mice, survival T/C  101 % of control
 8  COC(=O)C1=C(C(=O)OC)P2(c3ccccc3)(c3ccccc3)N(C)C(=S)N2C1(c1ccccc1)c1ccccc1  P388 leukemia ip, CD2F1 mice, survival T/C  105 % of control
 9  COc1ccc2c(C)cc(N/N=C(\C)c3cn(C)n(-c4ccccc4)c3=O)nc2c1  P388 leukemia ip, CD2F1 mice, survival T/C  110 % of control
10  Cc1ccc(OP2(=O)NC3CCCCC3N2)cc1 (configuration not stated)  P388 leukemia ip, CD2F1 mice, survival T/C   93 % of control

May I ask what T/C has been recorded for `CCOC(=O)C(=CNc1ccccc1-n1cccc1)C(=O)OCC` ?
108 % of control

May I ask what T/C has been recorded for `Clc1ccccc1C(Nc1nc2ccccc2s1)Nc1nc2ccccc2s1` ?
99 % of control

###

# Tested on: P388 leukemia ip, CD2F1 mice, survival T/C
# test: NCI In Vivo Anticancer Drug Screen. Data for tumor model P388 Leukemia (intraperitoneal) in CD2F1 (CDF1) mice
# recorded conditions: endpoint: median survival time; dose: 50.0 mg/kg/injection; schedule: Q01DX005 (ip); vehicle: saline; higher = longer survival
Toxic doses and inconclusive results are not listed.
T/C values for the compounds below.

> print(dat)
                                   compound  measurement.label       assay.value
1  CC(N)C(=O)NC(C(=O)O)C(C)C (stereo not given)                T/C   93 % of control
2  CC(C)(C)OC(=O)NC(CCCCNC(=O)OCc1ccccc1)C(=O)O (stereo not given)                T/C  106 % of control
3  CN(CCNCC1CCCN1C)Cc1cccc(Cl)c1 (stereo not given)                T/C  108 % of control
4          NC(CCl)C(=O)O (stereo not given)                T/C  100 % of control
5            CCC1CCCCN1C (stereo not given)                T/C   98 % of control

May I ask what T/C has been recorded for `N=C(N)c1ccc(O)cc1` ?
102 % of control

May I ask what T/C has been recorded for `Oc1ccc2c(ccc3[nH]cnc32)c1` ?
98 % of control

May I ask what T/C has been recorded for `O=c1oc2ccc(Cl)cc2c(=O)n1-c1cc(Cl)ccc1[N+](=O)[O-]` ?
100 % of control

May I ask what T/C has been recorded for CC(C)CC(NC(=O)C(C)N)C(N)=O (stereo not given) ?
99 % of control

May I ask what T/C has been recorded for `COc1ccc(CCNC2=CNCC2)cc1OC` ?
101 % of control

May I ask what T/C has been recorded for COC(=O)C(C)CP(=O)(OC)OC (stereo not given) ?
99 % of control

May I ask what T/C has been recorded for `C1COCCNCCOCCOCCN1` ?
95 % of control

May I ask what T/C has been recorded for `O=C1Cc2csc3nc(=O)cc(n23)N1` ?
94 % of control

May I ask what T/C has been recorded for COC(=O)C1C(Sc2ccccc2)CCN1C(C)=O (stereo not given) ?
88 % of control

May I ask what T/C has been recorded for N#CC1(OC2OC(CO)C(O)C(O)C2O)C=CCC1 (stereo not given) ?
103 % of control
